target: Glucocorticoid receptor (Homo sapiens) (UniProt P04150); assay: NVS_NR_hGR: NovaScreen (NVS) Nuclear Receptor Binding Assay for human Glucocorticoid Receptor (GR) (AID 2283363);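 as to AC50: activity is loss of specific radioligand binding signal relative to DMSO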
Sequence (P04150 whole entry, looked up): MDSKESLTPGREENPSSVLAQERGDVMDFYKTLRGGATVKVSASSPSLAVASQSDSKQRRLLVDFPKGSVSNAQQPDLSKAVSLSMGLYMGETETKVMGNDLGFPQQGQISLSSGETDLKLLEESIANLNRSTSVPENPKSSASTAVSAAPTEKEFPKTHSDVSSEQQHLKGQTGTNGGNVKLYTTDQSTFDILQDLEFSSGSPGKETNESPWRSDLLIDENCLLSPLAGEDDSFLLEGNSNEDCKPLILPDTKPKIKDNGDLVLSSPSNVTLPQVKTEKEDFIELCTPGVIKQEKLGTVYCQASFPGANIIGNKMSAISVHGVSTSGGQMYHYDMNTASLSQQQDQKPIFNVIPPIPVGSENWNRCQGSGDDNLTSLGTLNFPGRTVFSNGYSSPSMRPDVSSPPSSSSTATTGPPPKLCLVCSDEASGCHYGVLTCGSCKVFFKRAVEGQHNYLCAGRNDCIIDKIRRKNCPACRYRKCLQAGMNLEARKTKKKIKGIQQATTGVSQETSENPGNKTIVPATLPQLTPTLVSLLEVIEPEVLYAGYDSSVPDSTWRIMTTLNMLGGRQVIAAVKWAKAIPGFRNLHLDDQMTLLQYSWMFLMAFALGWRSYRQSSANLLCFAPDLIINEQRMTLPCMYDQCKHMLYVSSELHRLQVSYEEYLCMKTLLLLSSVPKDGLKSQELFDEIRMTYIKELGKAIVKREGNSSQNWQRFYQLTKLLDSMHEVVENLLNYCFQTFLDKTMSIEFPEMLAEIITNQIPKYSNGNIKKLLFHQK
Inconclusive results are not listed. Activity calls are given as the source filed them. The calls were made as follows: active = hit-call score of the fitted dose curve at least 0.9, where 1 is the maximum; inconclusive = response in the unintended direction; inactive = score below 0.9.
quantityMeasured: AC50

Recorded results for 6 compounds are shown here.
Cn1cc(-c2ccccc2)c(=O)c(-c2cccc(C(F)(F)F)c2)c1 = inactive
CCCCCOC(=O)c1ccccc1C(=O)OCCCCC = inactive
CCC[CH2][Sn]([Cl])([CH2]CCC)[CH2]CCC = 0.726 µM (active)
[Cl-].[Cl-].[Hg+2] = 8.46 µM (active)
Oc1ccc2ccc3cccc4ccc1c2c34 = 4.96 µM (active)
CN(C)[C@@H]1C(=O)C(C(N)=O)=C(O)[C@@]2(O)C(=O)C3=C(O)c4c(O)cccc4[C@@](C)(O)[C@H]3C[C@@H]12 = 15.9 µM (active)

Now look at this entry.
Prompt: What does the record list as AC50 for CCCCCCCCn1sccc1=O ?
Completion: 7.16 µM (active)

====

read-out: Interferon-gamma inducible Protein 10 (IP10), CXCL10 (gene 3627); assay: BSK_hDFCGF_IP10: BioMAP Diversity Plus: hDFCGF Assay for Interferon-gamma inducible Protein 10 (IP10) Biomarker Activity (AID 2283053); settings: primary human foreskin fibroblasts; actives raise or lower the signal
Calls of active or inactive are those of the source. Rule for the calls: active = hit-call score of the fitted dose curve at least 0.9, where 1 is the maximum; inactive = score below 0.9.
Outcome field: choose from True = active, False = inactive

Prompt: Could you please tell me the result logged for O=[N+]([O-])C(Br)(CO)CO in this assay?
Completion: True

Prompt: Could you please tell me the result logged for C=CCc1ccc2c(c1)OCO2 in this assay?
Completion: False

Prompt: Could you please tell me the result logged for [As]#[In] in this assay?
Completion: False

Prompt: Could you please tell me the result logged for Cc1ccc(N=C=O)cc1N=C=O in this assay?
Completion: False

Prompt: Could you please tell me the result logged for CCC[CH2][Sn]([Cl])([CH2]CCC)[CH2]CCC in this assay?
Completion: True

Prompt: Could you please tell me the result logged for CCCCC(CC)COC(=O)c1ccc(C(=O)OCC(CC)CCCC)c(C(=O)OCC(CC)CCCC)c1 (centres undefined) in this assay?
Completion: False

Prompt: Could you please tell me the result logged for Cc1cc(N=Nc2ccccc2C)ccc1N in this assay?
Completion: True

Prompt: Could you please tell me the result logged for O=C(O)C1C2CCC(O2)C1C(=O)O (centres undefined) in this assay?
Completion: False

Prompt: Could you please tell me the result logged for CS(=O)(=O)NC(=O)c1cc(Oc2ccc(C(F)(F)F)cc2Cl)ccc1[N+](=O)[O-] in this assay?
Completion: False

Prompt: Could you please tell me the result logged for Nc1cc(Cl)cc(C(=O)O)c1Cl in this assay?
Completion: False

Prompt: Could you please tell me the result logged for CC(C)(O)c1cnn2c(-c3ccc(F)c(-c4c(F)cccc4C#N)c3)cnc2n1 in this assay?
Completion: False

Prompt: Could you please tell me the result logged for ClC1=C(Cl)C2(Cl)C3C(Cl)C=CC3C1(Cl)C2(Cl)Cl (centres undefined) in this assay?
Completion: True

Prompt: Could you please tell me the result logged for Nc1ccc([N+](=O)[O-])cc1 in this assay?
Completion: False

Prompt: Could you please tell me the result logged for Nc1ccc(Cl)cc1N in this assay?
Completion: False

Prompt: Could you please tell me the result logged for CC(C)(C)OOC(=O)c1ccccc1 in this assay?
Completion: True

Prompt: Could you please tell me the result logged for Cc1cccc(N)c1N in this assay?
Completion: False

Prompt: Could you please tell me the result logged for CCC12COCN1COC2 in this assay?
Completion: False

Prompt: Could you please tell me the result logged for CN(C)c1ccc(C(=O)c2ccc(N(C)C)cc2)cc1 in this assay?
Completion: False

Prompt: Could you please tell me the result logged for C[N+](C)(C)CC1CO1 (centres undefined) in this assay?
Completion: False

Prompt: Could you please tell me the result logged for CN(C)[C@@H]1C(=O)C(C(N)=O)=C(O)[C@@]2(O)C(=O)C3=C(O)c4c(O)cccc4[C@@](C)(O)[C@H]3C[C@@H]12 in this assay?
Completion: False

Prompt: Could you please tell me the result logged for Clc1ccc(C(c2ccc(Cl)cc2)C(Cl)(Cl)Cl)cc1 in this assay?
Completion: True

Prompt: Could you please tell me the result logged for CCN(CC)N=O in this assay?
Completion: False

Prompt: Could you please tell me the result logged for Oc1ccc2ccc3cccc4ccc1c2c34 in this assay?
Completion: True

Prompt: Could you please tell me the result logged for Brc1ccc(Oc2ccccc2)cc1 in this assay?
Completion: False
